These data points were gathered from patent US9593305B2.

- System: H1 human embryonic stem cells
- assay text: Secondary assay: panel of compounds with growth factor combinations and muscimol, no activin A (Example 6, Table 5)
- Type: cell-based
- run parameters: no AA (with Wnt3a); EGF + PDGF-A + VEGF
measured parameter: Sox17 Expression, % of positive control (%)
A number alone suffices; assume %.

Here is how some compounds turned out for Sox17 Expression, % of positive control.
1. O=C1CCN2CCN(CC2)Cc2cc(Cl)cc(c2)Nc2ncnc(n2)-c2cncc(c2)CCCN1 : 2.53
2. O=C1NCCCc2cncc(c2)-c2ncnc(n2)Nc2cc(Cl)cc(c2)CN2CCCC1C2 (stereo not shown) : −7.82
3. CCN1CCCc2cccc(c2)-c2ncnc(n2)Nc2cccc(c2)CCNC(=O)C1 : −5.34
4. O=C1NCCCc2cncc(c2)-c2ncnc(n2)Nc2cccc(c2)CN2CCCC1C2 (stereo not shown) : 1.24
5. O=C1NCCCc2cncc(c2)-c2ncnc(n2)Nc2cccc(c2)CN2CCC1CC2 : 2.91
6. CCN1CC(=O)NCCCc2cncc(c2)-c2ncnc(n2)Nc2cc(Cl)cc(c2)C1 : 7.72

[in] Lab note: need Sox17 Expression, % of positive control for CN1CCC(=O)NCCCNc2ncccc2-c2ncnc(n2)Nc2cccc(c2)C1 on H1 human embryonic stem cells, anyone have it?
[out] 2.82
